measurement-target: Retinal dehydrogenase 2 (Homo sapiens) (UniProt O94788)
assay-explanation: qHTS for Inhibitors of the Aldehyde Dehydrogenase Family (ALDH1A2) Confirmation screens (AID 2061314); further: nearly all actives have a fitted effect of over 65% in size
condition-info: ALDH1A2 enzyme inhibition qHTS confirmation; series mostly up to 45.9 µM
Records with an inconclusive call do not appear. Active and inactive are the calls of the source. The call rests on the fitted dose curve; in most records, active means well fitted inhibition curve with a large enough effect; inconclusive means small, poorly fitted or top-dose-only effect; inactive means no such curve, though single readings can be large or run the other way.
Outcomes: T for active, F for inactive

molecule=NS(=O)(=O)c1cccc2c1c([N+](=O)[O-])cc1nc(O)c(O)nc12 measurement_target="Retinal dehydrogenase 2 (Homo sapiens) (UniProt O94788)" class_label=T
molecule=CCN1CCN(C(=O)N[C@@H](C(=O)N[C@@H]2C(=O)N3[C@@H]2SC(C)(C)[C@@H]3C(=O)O)c2ccccc2)C(=O)C1=O measurement_target="Retinal dehydrogenase 2 (Homo sapiens) (UniProt O94788)" class_label=F
molecule=NC(=O)C1CCN(c2ncc(-c3cccc(N4CCCC4)c3)s2)CC1 measurement_target="Retinal dehydrogenase 2 (Homo sapiens) (UniProt O94788)" class_label=T
molecule=O=C1Nc2ccccc2/C1=C\c1ccc(O)c(F)c1 measurement_target="Retinal dehydrogenase 2 (Homo sapiens) (UniProt O94788)" class_label=T
molecule=O=C(O)c1ccc2c(c1)C(=O)N([C@H](Cc1ccc(F)cc1)C(=O)O)C2=O measurement_target="Retinal dehydrogenase 2 (Homo sapiens) (UniProt O94788)" class_label=F
molecule=O=[N+]([O-])c1ccccc1CSc1nc2ncc(Br)cc2[nH]1 measurement_target="Retinal dehydrogenase 2 (Homo sapiens) (UniProt O94788)" class_label=F
molecule=Cc1ccnc(NC(=S)N2CCN(c3cccc(Cl)c3Cl)CC2)c1 measurement_target="Retinal dehydrogenase 2 (Homo sapiens) (UniProt O94788)" class_label=T
molecule=O=C1[C@@H]2[C@H]3CC[C@H](C3)[C@@H]2C(=O)N1CCCCN1CCN(c2ncccn2)CC1 measurement_target="Retinal dehydrogenase 2 (Homo sapiens) (UniProt O94788)" class_label=F
molecule="O=C1CCCC2=C1C(c1cccnc1Cl)N=C(Nc1nc3ccccc3o1)N2 (stereo unspecified)" measurement_target="Retinal dehydrogenase 2 (Homo sapiens) (UniProt O94788)" class_label=T
molecule=Cc1nc2c(C#N)c[nH]n2c(=O)c1C(C)C measurement_target="Retinal dehydrogenase 2 (Homo sapiens) (UniProt O94788)" class_label=F
molecule="CC1=CC(=O)C(=C(C)C)CC2C(C)(O)CCC12O (stereo unspecified)" measurement_target="Retinal dehydrogenase 2 (Homo sapiens) (UniProt O94788)" class_label=F
molecule=Cc1cc(C)nc(NC(=S)N2CCN(c3cccc4ccncc34)CC2)c1 measurement_target="Retinal dehydrogenase 2 (Homo sapiens) (UniProt O94788)" class_label=T
molecule=S=C(NCc1ccc2c(c1)OCO2)N1CCN(c2ncnc3c2oc2ccccc23)CC1 measurement_target="Retinal dehydrogenase 2 (Homo sapiens) (UniProt O94788)" class_label=T
molecule=O=C(O)c1cccnc1SC1=NS(=O)(=O)c2ccccc21 measurement_target="Retinal dehydrogenase 2 (Homo sapiens) (UniProt O94788)" class_label=T
molecule=O=C1NS(=O)(=O)c2cc(Br)ccc21 measurement_target="Retinal dehydrogenase 2 (Homo sapiens) (UniProt O94788)" class_label=F
molecule=COc1ccc(C(=O)N(Cc2ccco2)Cc2cccs2)c(O)c1 measurement_target="Retinal dehydrogenase 2 (Homo sapiens) (UniProt O94788)" class_label=T
molecule="N#Cc1ccc(-c2ccc(C3Nc4ccccc4C(=O)N3O)o2)cc1 (stereo unspecified)" measurement_target="Retinal dehydrogenase 2 (Homo sapiens) (UniProt O94788)" class_label=T
molecule=O=c1[nH]c2ccc(NCc3ccc(-c4ccccc4F)o3)cc2[nH]1 measurement_target="Retinal dehydrogenase 2 (Homo sapiens) (UniProt O94788)" class_label=F
molecule=O=C(Nc1cccc([S+](=O)([O-])Nc2ccccc2F)c1)c1ccccc1 measurement_target="Retinal dehydrogenase 2 (Homo sapiens) (UniProt O94788)" class_label=F
molecule=O=C(O)c1cc(O[C@@H]2O[C@H](CO[C@@H]3OC[C@@H](O)[C@H](O)[C@H]3O)[C@@H](O)[C@H](O)[C@H]2O)c2ccccc2c1O measurement_target="Retinal dehydrogenase 2 (Homo sapiens) (UniProt O94788)" class_label=T
molecule="COc1cc(C2Oc3c(OC)cc(CCCO[C@@H]4O[C@H](CO)[C@@H](O)[C@H](O)[C@H]4O)cc3C2CO)ccc1O (stereo partly specified)" measurement_target="Retinal dehydrogenase 2 (Homo sapiens) (UniProt O94788)" class_label=F

Source listed as PubChem BioAssay (NCATS).
